// provenance: patent US20140357543A1

# assayed-target: T1, alcalase (trade name "Alcalase 2.5L", Novozymes) (UniProt P00780)
# T1 sequence (looked up): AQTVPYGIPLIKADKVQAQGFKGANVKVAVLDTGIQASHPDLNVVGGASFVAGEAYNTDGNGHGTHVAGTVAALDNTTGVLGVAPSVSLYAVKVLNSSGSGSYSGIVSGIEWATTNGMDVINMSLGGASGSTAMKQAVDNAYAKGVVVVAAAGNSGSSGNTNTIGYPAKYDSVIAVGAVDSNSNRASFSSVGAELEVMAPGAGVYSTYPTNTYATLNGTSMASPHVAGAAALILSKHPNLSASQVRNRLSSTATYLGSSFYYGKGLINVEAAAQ
# assay-notes: cell-based or functional assay
Exercise: for every item that follows, state its recorded Protease activity upon dilution (%) immediately after preparation.
One number for each entry, in %.

Item proteinaceous protease inhibitor of SEQ ID NO:16 (protein) TDTGDHHNQKTEWPELVGKSVEEAKKVILQDKSEAQIVVLPVGTIVTMEYRVDRVRLFVDSLDKIAQVPRVG : provide Protease activity upon dilution (%) immediately after preparation
95

// fetch Protease activity upon dilution (%) immediately after preparation given entry proteinaceous protease inhibitor of SEQ ID NO:35 (protein) MSSVEKKPEGVNTGAGDRHNLKTEWPELVGKSVEEAKKVILQDKSEAQIIVLPVGTIVTMEYRIARVRLFVDKLDNIAQVPRVG
80

Item proteinaceous protease inhibitor of SEQ ID NO:12 (protein) TDTGDHHNQKTEWPELVGKSVEEAKKVILQDKSEAQIVVLPVGTIVTMEYAIDRVRLFVDSLDKIAQVPRVG : provide Protease activity upon dilution (%) immediately after preparation
20

Report Protease activity upon dilution (%) immediately after preparation for every entry below.
1. proteinaceous protease inhibitor of SEQ ID NO:4 (protein) TDTGDHHNQKTEWPELVGKSVEEAKKVILQDKSEAQIAVLPVGTIVTMEYRIDRVRLFVDSLDKIAQVPRVG
2. proteinaceous protease inhibitor of SEQ ID NO:7 (protein) TDTGDHHNQKTEWPELVGKSVEEAKKVILQDKSEAQIVVLPVGTIVTAEYRIDRVRLFVDSLDKIAQVPRVG
3. proteinaceous protease inhibitor of SEQ ID NO:41 (protein) MSSVEKKPEGVNTGAGDRHNLKTEWPELVGKSVEEAKKVILQDKSEAQIIVLPVGTIVTMEYRIDRVRLFVDKLDNIAQVPRVG

1: 80; 2: 86; 3: 8

Each binder below has a recorded value; state its Protease activity upon dilution (%) immediately after preparation.
1. proteinaceous protease inhibitor of SEQ ID NO:9 (protein) TDTGDHHNQKTEWPELVGKSVEEAKKVILQDKSEAQIVVLPVGTIVTMEARIDRVRLFVDSLDKIAQVPRVG
2. proteinaceous protease inhibitor of SEQ ID NO:28 (protein) TDTGDHHNQKTEWPELVGKSVEEAKKVILQDKSEAQIVVLPVGTIVTMEGRIDRVRLFVDSLDKIAQVPRVG
3. proteinaceous protease inhibitor of SEQ ID NO:25 (protein) TDTGDHHNQKTEWPELVGKSVEEAKKVILQDKSEAQIAVLPVGTIVTMEYRIDRVRLFVDSLDKIAQVPAVG
4. proteinaceous protease inhibitor of SEQ ID NO:18 (protein) TDTGDHHNQKTEWPELVGKSVEEAKKVILQDKSEAQIVVLPVGTIVTMEYRIARVRLFVDSLDKIAQVPRVG

[85, 90, 80, 85]
